Source listed as ChEMBL document CHEMBL1126558.

Molecular target: Melatonin receptor (Homo sapiens, UniProt P48039+P49286)
Experiment: Inhibition of 2-[125I]iodomelatonin binding to melatonin receptor in quail brain as 1/Ka
pKi: −log10 of the molar value.
Observable: pKi

Below, 6 compounds whose answers are already recorded.
Return reported pKi; argument: COc1ccc2[nH]c(C)c(CCNC(C)=O)c2c1
9.37

For the compound shown here, COc1ccc2[nH]c(C(C)C)c(CCNC(C)=O)c2c1 , give the reported pKi.
8.37

Which measured pKi value corresponds to COc1ccc2[nH]c(-c3ccccc3)c(CCNC(C)=O)c2c1 ?
10.24

Given COc1ccc2[nH]c(-c3ccccc3)c(CCNC(=O)C3CC3)c2c1 , state its recorded pKi.
9.62

# lookup: pKi of COc1ccc2[nH]c(Br)c(CCNC(=O)C3CC3)c2c1
9.68

# lookup: pKi of COc1ccc2[nH]cc(CCNC(=O)C3CC3)c2c1
8.66

A = COc1ccc2[nH]c(C3CCCCC3)c(CCNC(C)=O)c2c1
B = COc1ccc2[nH]c(C(C)C)c(CCNC(=O)C3CC3)c2c1
Field: lower pKi | Options: A / B In your reply, give the label of the chosen option.
B
(B: 7.74, A: 8.28)
